# Test system: MS2 coat protein
# test summary: apparent KD of MS2 coat protein; designed switch direction (-1 OFF switch, 1 ON switch): 1; higher = weaker reporter binding
# assay context: input ligand: none
endpoint name: apparent KD of MS2 coat protein (nM)
Report only the number, with the unit nM understood.

Prompt: Lab request: please report apparent KD of MS2 coat protein under test system MS2 coat protein for AGUAGUGUAACAUGAGGAUCACCCAUGUAAGUAGAUGUAACCUAGGAUAUGGAUGAUAUGUUAGUCCAGAAGGAGGAUUGUUUA [JR_SSNG3_Sub038] (Eterna round: R96, puzzle: Same State NG 3)
Response: 34.8

Prompt: Lab request: please report apparent KD of MS2 coat protein under test system MS2 coat protein for GACGAGGUGGGAGGAUAUAGCCCGUGGACUGUACCCGAACAUGAGGAUCACCCAUGUCGAGAAACCUAGAAGGCCUACAACGUA [Eternabot solution 11] (Eterna round: R96, puzzle: Same State NG 2)
Response: 38.4

Prompt: Lab request: please report apparent KD of MS2 coat protein under test system MS2 coat protein for CUUCGGAAGCGAGGAUAUGCAGAGGAUCACCCUGCAGAAGGCGCAAAAGCGAGGAUAUGCAGAGGAUCACCCUGCAGAAGGCGC [pwkr ssNG DX.34] (Eterna round: R96, puzzle: Same State NG 1)
Response: 32.4

Prompt: Lab request: please report apparent KD of MS2 coat protein under test system MS2 coat protein for ACAUGAGACUUAGGAUAUGUUGUACCUACAUGUGACAUGAGGAUCACCCAUGUGGUAAGUAUGAGGCAGAAGGAAGAGAUAUGU [Equivalence 39 - Jieux - Same State NG 2] (Eterna round: R96, puzzle: Same State NG 2)
Response: 73.1

Prompt: Lab request: please report apparent KD of MS2 coat protein under test system MS2 coat protein for UUUACUUUCAUAGGAUAUCAUGCGAAAAUUGCGUGAGAAGGGUGAACACUGUCUUUCUAAGAGUACAUGAGGAUCACCCAUGUA [SameState NG1 #65] (Eterna round: R96, puzzle: Same State NG 1)
Response: 131

----------
# Test system: MS2 coat protein
# test summary: apparent KD of MS2 coat protein; designed switch direction (-1 OFF switch, 1 ON switch): 1; higher = weaker reporter binding
# assay context: Eterna round: R95; input ligand: none
Exercise: for every item that follows, state its recorded apparent KD of MS2 coat protein.
Report only the number, with the unit nM understood.

Prompt: Quick check: apparent KD of MS2 coat protein of AGUCCAGCCUGAGCUGGACAAAGGCAUGUACAUGAGGAUCACCCAUGUUCAUGUACAAGCUUUUUGCUCGUCUUAAA [Zipper 52 - 1] (puzzle: Sensor for hsa-mir-208a) ?
Response: 181

Prompt: Quick check: apparent KD of MS2 coat protein of AAGAAGACGAACAAGGAUAUGUCAAAGGAAACAUGAGGAUCACCCAUGUAGAGAUUGGAAAAGAAACAGAAGGUGUACAGAAAGA [JR_SS2_Sub005] (puzzle: Same State 2) ?
Response: 35.1

Prompt: Quick check: apparent KD of MS2 coat protein of AGGGAGGAAGCUGAGGAUAUCGUAAGGAGGACAUGAGGAUCACCCAUGUGUGUAGAAUUGGAGGACGAGAAGGCAGAGGAGUGGG [JR_SS2_Sub053] (puzzle: Same State 2) ?
Response: 37

Prompt: Quick check: apparent KD of MS2 coat protein of GCGGCGGCACGGCAGGAUAUGAUAAAACCUACAUGAGGAUCACCCAUGUCGGCGGGUUGCAAAAUUCAGAAGGGCCCUGUAGGCC [Leorzaonis] (puzzle: Same State 2) ?
Response: 38.6

Prompt: Quick check: apparent KD of MS2 coat protein of AGUCCAGCCAAAGCUGGACAAAAGCAUGUACAUGAGGAUCACCCAUGUUCAUGUACAAGCUUUUUGCAAGUCAAAAU [Mat - hsa-mir-208a - Mod of JL - 78] (puzzle: Sensor for hsa-mir-208a) ?
Response: 433

Prompt: Quick check: apparent KD of MS2 coat protein of ACAAGCUUUUCUGCAUUGAAAGGUUGGUUACAUGAGGAUCACCCAUGUUUUUAUGAAAAUAAUGCUCCUCGUCUUAU [JR_SHM208A_Sub093] (puzzle: Sensor for hsa-mir-208a) ?
Response: 252

Prompt: Quick check: apparent KD of MS2 coat protein of UUGGUGUAGAUACAGGAUAUGUUGCUCGUAACAUGAGGAUCACCCAUGUAUCUAUGAGAUUAAAUGCAGAAGGGUGCACACCACU [salish99_ss2_r3_087] (puzzle: Same State 2) ?
Response: 541

Prompt: Quick check: apparent KD of MS2 coat protein of AUAAAACAUGAGGAUCACCCAUGUCAAAAGACAUGAGGAUAUGUGCAAAUAAAAUAAGAAACAGAAGGCAUGAAAA [salish99_ss1_r3_103] (puzzle: Same State 1) ?
Response: 222

Prompt: Quick check: apparent KD of MS2 coat protein of UGUCCAGCCUGUGCUGGUCUUUAGCAUGUACAUGAGGAUCACCCAUGUCGUGUACAUGCUUUUUGCUCGUCUUUAAA [Photon Torp-05] (puzzle: Sensor for hsa-mir-208a) ?
Response: 92.2

Prompt: Quick check: apparent KD of MS2 coat protein of GGUCCAGCCUGAGCUGGACAAAAGCAUGUACAUGAGGAUCACCCAUGUUCAUGUACAAGCUUUUUGCUCGUCUUAGU [salish99_208a_r3_069] (puzzle: Sensor for hsa-mir-208a) ?
Response: 730

----------
# Test system: K4 kissing-loop RNA reporter;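 note: bound reporter read as fluorescence of individual clusters on recovered sequencing chips by microscopy, with normalized cluster intensities fitted with a binding model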
# test summary: apparent KD of K4 kissing-loop reporter; higher = weaker reporter binding
# assay context: Eterna round: R107; input ligand: FMN 200 uM
Rule: apparent KD of K4 kissing-loop reporter under 600 nM gives criterion not met, otherwise criterion met.

Prompt: Check if apparent KD of K4 kissing-loop reporter >= 600 nM (inclusive). Item: "UGCAUGCGUAGAGUGAUGUUCUAAGAUGAUACCAGUGCGGAAACGCACCCUUGGCAGCAUCUGACUGCAUGCACGUCGAAAGACG"
Response: criterion met

Prompt: Check if apparent KD of K4 kissing-loop reporter >= 600 nM (inclusive). Item: AAAUCGUUCAGAAGGAGCGUGGUAUAAUCAUUAAUAUUUAUUACGAGUGAUGUUCGUAAUUCACAGGUAGGUCGCUGAUCGAUAA [JR_SSArginiB_Sub006]
Response: criterion not met

Prompt: Check if apparent KD of K4 kissing-loop reporter >= 600 nM (inclusive). Item: UAUAAUUCGGCGGCCGCCACUGACCAUAGCCUUCGAUGGCCAGUGAUGUUGGCCUCUGGCUCUAACAGGACCGGGCCGAAUUGCG [Aririmaus]
Response: criterion not met

Prompt: Check if apparent KD of K4 kissing-loop reporter >= 600 nM (inclusive). Item: CCAUCGCUAUUCGAUACCAGUCAGGAGGUCUGUGACCUCCUAAUGGAGUGAUGUUCCUUAGACCCUUGGCAGCGAAUAGUGAUGG [#02 K4 Theophylline B Same State]
Response: criterion not met

Prompt: Check if apparent KD of K4 kissing-loop reporter >= 600 nM (inclusive). Item: CGAAGAGAGUGAUGUUCUCUAGGCAAAAGAAAGGAUAUAAUGUUUGUUAGAAGGUUCGGAAAAUGGAACGUCGGCCCGUACAACC [theeternabot_exclusion_KL_FMN_A_18]
Response: criterion not met

Prompt: Check if apparent KD of K4 kissing-loop reporter >= 600 nM (inclusive). Item: CAUAUACAAGUGAUGUUUGUACUAACCGAAGGAGCGUCGUUGAAGACAGGUAGGUCGCGGUUUAAGUUAGAUUAUAUAAUUCCAC [JR_Nu_SSArginiA_Sub027]
Response: criterion met

Prompt: Check if apparent KD of K4 kissing-loop reporter >= 600 nM (inclusive). Item: UGAUAAAGCAGUGAUGUUGCAAGAAAUGAUACCAGUUAAGAAGAGAACCCUUGGCAGCAUAAAGUGCGCUCUAAUGAGUGUGCUU [whbob_SS_Theo_A_w50]
Response: criterion not met

Prompt: Check if apparent KD of K4 kissing-loop reporter >= 600 nM (inclusive). Item: CGCGCGCGCUUGAGAGGGCGCGCGCGAAGUGAGGAUAUUUAGGGAGAAAGAAGGCACUAUAAAAUAUAGUGAUGUUAUAUAAGGG [SSFMNA.E]
Response: criterion met

Prompt: Check if apparent KD of K4 kissing-loop reporter >= 600 nM (inclusive). Item: ACCAUCAAAGAUGGCCAGGACUCAACUGAUACCAGAGUGAAAACACUCCCUUGGCAGCAGGUGAGUGAUGUUCACGAGUCCUGGA [Omel KL Theo A SS B v7]
Response: criterion not met

Prompt: Check if apparent KD of K4 kissing-loop reporter >= 600 nM (inclusive). Item: UGGCGAGUGAUGUUCGUUGUUGUAGUGUGUCGAGGACCGGUACGGCCGCCACUCGGGUUGGUUGUUGUUGUUGUUGUUGUUGUUG [First Shot]
Response: criterion not met

Prompt: Check if apparent KD of K4 kissing-loop reporter >= 600 nM (inclusive). Item: UUUUUAAUCGCAGAUACCAGUCCAGAAUAAAUACUAUAGUGAUGUUAUAUAUAAGGAAAGGACCCUUGGCAGCUGUACUAUAUUU [AstrosSsTheB#8]
Response: criterion not met

Hello, the source for this data is the supplement of paper PMC9170038, in case you need it.
